Hi, quick share: literature pIC50 data for ADAMTS4 (Homo sapiens), several sources combined.
Note: pIC50 values are expressed as the negative base-10 logarithm of concentration in M.

Reference set, count: 3
CC(C)[C@@H](NS(=O)(=O)c1ccc(-c2ccc(N(C)C(=O)c3cc4ccccc4o3)cc2)cc1)C(=O)O ... 4.38
O=C1NC(=O)[C@](CNC(=O)c2cnn(-c3ccc(Cl)c(Cl)c3)n2)(C2CC2)N1 ... 6.04
C[C@H](NC(=O)c1cnn(-c2ccccc2)n1)C1(C2CC2)NC(=O)NC1=O (stereo partly shown) ... 4.60

Exam item: Bench note: what pIC50 did CC(C)[C@@H](NS(=O)(=O)c1ccc(-c2ccc(COc3cc(C(F)(F)F)nc4c(C(F)(F)F)cccc34)cc2)cc1)C(=O)O show?
Marked response: 6.70
